Answer each item with its documented pIC50.
target entity: KRAS WT (Homo sapiens, UniProt P01116+P62937)
Sequence (P01116 1-169 isoform P01116-2 limits assumed): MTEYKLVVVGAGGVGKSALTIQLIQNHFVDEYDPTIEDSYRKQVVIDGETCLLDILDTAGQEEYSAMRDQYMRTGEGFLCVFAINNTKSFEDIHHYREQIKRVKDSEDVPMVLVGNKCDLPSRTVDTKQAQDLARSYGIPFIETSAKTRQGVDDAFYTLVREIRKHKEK
Sequence (P62937 whole entry): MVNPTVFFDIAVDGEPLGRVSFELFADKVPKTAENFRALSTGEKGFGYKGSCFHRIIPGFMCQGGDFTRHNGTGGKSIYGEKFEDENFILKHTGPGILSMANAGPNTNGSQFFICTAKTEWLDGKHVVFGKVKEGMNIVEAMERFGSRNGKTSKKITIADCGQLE
method notes: Ras-Raf disruption / FRET / MOA assay (BRAF RBD)
Format: biochemical
settings: Ras-Raf disruption, with Cyclophilin A; read-out: KRAS WT FRET data IC50
pIC50: −log10 of the molar value.

# input Give reported pIC50 value for CCn1c(-c2cccnc2[C@H](C)OC)c2c3cc(ccc31)-c1cc(O)cc(c1)C[C@H](NC(=O)[C@H](C(C)C)N(C)C(=O)[C@@]1(F)CCN(C(=O)[C@H]3CN3)C1)C(=O)N1CCC[C@H](N1)C(=O)OCC(C)(C)C2 [Example 171]
# output 7.00 to 8.00

# input Give reported pIC50 value for CCn1c(-c2cccnc2[C@H](C)OC)c2c3cc(ccc31)-c1cc(O)cc(c1)C[C@H](NC(=O)[C@H](C(C)C)N(C)C(=O)c1ccc(NC(=O)[C@H]3CN3)cn1)C(=O)N1CCC[C@H](N1)C(=O)OCC(C)(C)C2 [Example 127]
# output 6.00 to 7.00

# input Give reported pIC50 value for CCn1c(-c2cccnc2[C@H](C)OC)c2c3cc(ccc31)-c1csc(n1)C[C@H](NC(=O)[C@H](C(C)C)N(C)C(=O)N1CCN(C(=O)[C@H]3CN3)[C@H](C)C1)C(=O)N1CCC[C@H](N1)C(=O)OCC(C)(C)C2 [Example 299]
# output 6.00 to 7.00

# input Give reported pIC50 value for CCn1c(-c2cccnc2[C@H](C)OC)c2c3cc(ccc31)-c1cc(O)cc(c1)C[C@H](NC(=O)[C@H](C(C)C)N(C)C(=O)N1CCN(C(=O)[C@H]3CN3)C(=O)C1)C(=O)N1CCC[C@H](N1)C(=O)OCC(C)(C)C2 [Example 143]
# output 7.00 to 8.00

# input Give reported pIC50 value for CCn1c(-c2cccnc2[C@H](C)OC)c2c3cc(ccc31)-c1cc(O)cc(c1)C[C@H](NC(=O)[C@H](C(C)C)N(C)C(=O)N(C)C1CN(C(=O)[C@H]3CN3)C1)C(=O)N1CCC[C@H](N1)C(=O)OCC(C)(C)C2 (atropisomer, axis not shown) [Example 203]
# output 6.00 to 7.00

# input Give reported pIC50 value for CCn1c(-c2cccnc2[C@H](C)OC)c2c3cc(ccc31)-c1cc(O)cc(c1)C[C@H](NC(=O)[C@H](C(C)C)N(C)C(=O)C1CC3(C1)CN(C(=O)[C@@H]1CN1)C3)C(=O)N1CCC[C@H](N1)C(=O)OCC(C)(C)C2 [Example 180]
# output 6.00 to 7.00

# input Give reported pIC50 value for CCn1c(-c2cccnc2[C@H](C)OC)c2c3cc(ccc31)-c1cc(O)cc(c1)C[C@H](NC(=O)[C@H](C(C)C)N(C)C(=O)[C@H]1C[C@@H]3N[C@@H]3C1)C(=O)N1CCC[C@H](N1)C(=O)OCC(C)(C)C2 (atropisomer, axis not shown) [Example 286]
# output 6.00 to 7.00

# input Give reported pIC50 value for CCn1c(-c2cccnc2[C@H](C)OC)c2c3cc(ccc31)-c1cc(O)cc(c1)C[C@H](NC(=O)[C@H](C(C)C)N(C)C(=O)N1CC(NC(=O)[C@@H]3CN3)C1)C(=O)N1CCC[C@H](N1)C(=O)OCC(C)(C)C2 (atropisomer, axis not shown) [Example 188]
# output 6.00 to 7.00
